Target entity: Scavenger receptor class B member 1 (Mus musculus) (UniProt Q61009)
Sequence (Q61009 whole entry, looked up): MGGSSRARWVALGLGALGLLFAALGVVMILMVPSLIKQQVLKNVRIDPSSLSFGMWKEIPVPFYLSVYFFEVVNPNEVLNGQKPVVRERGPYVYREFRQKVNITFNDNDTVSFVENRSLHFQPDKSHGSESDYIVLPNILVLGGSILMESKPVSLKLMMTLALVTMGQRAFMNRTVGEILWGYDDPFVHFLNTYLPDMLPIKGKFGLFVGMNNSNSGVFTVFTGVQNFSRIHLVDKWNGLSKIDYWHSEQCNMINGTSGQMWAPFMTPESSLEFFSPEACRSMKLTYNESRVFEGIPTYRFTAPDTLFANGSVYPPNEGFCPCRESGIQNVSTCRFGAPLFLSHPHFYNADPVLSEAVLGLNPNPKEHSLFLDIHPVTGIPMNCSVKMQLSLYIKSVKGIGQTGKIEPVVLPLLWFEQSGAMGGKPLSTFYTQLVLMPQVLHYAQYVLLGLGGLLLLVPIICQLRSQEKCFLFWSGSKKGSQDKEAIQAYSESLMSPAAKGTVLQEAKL
Test method notes: mouse SR-BI DiI-HDL uptake blockers – ldlA[mSR-BI] cells, fluorescence, single point, primary screen (AID 488896)
Experimental conditions: ldlA[mSR-BI] CHO cells, 3 h, at 12.5 µM
Hit rate of the full screen: of about 320,000 compounds, about 3,100 (0.97%) were called active.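 The calls were made as follows: active = mean replicate inhibition of at least 70% and a set share of replicates each scoring 70 or more; inconclusive = meets just one of the two criteria; inactive = fails both criteria.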 For the sample, actives were picked, then their nearest neighbours and some compounds at random.
One label from this list, please: active, inactive

Examples from the recorded data:
# Compound, Classification
rows = [
    ("COc1ccc(CCN2CC(C(=O)OCC(=O)NCc3ccccc3Cl)CC2=O)cc1OC (centres undefined)", "inactive"),
    ("CCOc1ccc(-n2c(O)c(/C=N/c3ccnn3Cc3ccncc3)c3ccccc3c2=O)cc1", "inactive"),
]

In: Entry Oc1cccc(/C=N/Nc2ccc(Cl)nn2)c1O : call = ?
Out: inactive

In: // same read-out, input: COc1ccc(C(CNC(=O)c2cc(S(=O)(=O)Nc3cccc(C)c3)ccc2C)N2CCCC2)cc1 (centres undefined)
Out: inactive

In: // same read-out, input: COc1cccc2oc(CCc3ccccc3)cc(=O)c12
Out: inactive

In: // same read-out, input: O=C(NNC(=O)c1ccccc1O)c1ccccc1O
Out: active

In: // same read-out, input: COc1cc2c(cc1CNC[C@H]1O[C@@H](n3cnc(C(N)=O)n3)[C@H](O)[C@@H]1O)OCO2
Out: inactive

In: // same read-out, input: CCOc1ccc(-n2c(O)c(/C=N/Nc3nc(C)cc(C)n3)c3ccccc3c2=O)cc1
Out: inactive

In: // same read-out, input: OCCN1CCN(c2nnc(-c3ccccc3)c3ccccc23)CC1
Out: inactive

In: // same read-out, input: O=C1CC[C@@H]2CC3(C[C@@H]4CCN1[C@H]24)Nc1cc([N+](=O)[O-])ccc1NC3=NC1CCCCC1 (some centres undefined)
Out: inactive

In: // same read-out, input: C(=N\Nc1ccc2ccccc2n1)/c1ccc2c(c1)OCO2
Out: inactive

In: // same read-out, input: OCC1(CO)CC2(C1)CC(CO)(CO)C2
Out: inactive

In: // same read-out, input: COc1ccc(/C=C/C(=O)OCC(=O)N2CCN(S(=O)(=O)c3ccc(C)cc3C)CC2)cc1OC
Out: active

In: // same read-out, input: NC(CSC1(c2ccccc2)c2ccccc2-c2ccccc21)C(=O)O (centres undefined)
Out: inactive

In: // same read-out, input: Cc1cccc(NC(=O)CSc2nnc(-c3ccco3)o2)c1
Out: inactive

In: // same read-out, input: Brc1ccc(-c2csc(N/N=C/c3cccnc3)n2)cc1
Out: inactive

In: // same read-out, input: O=C(COC(=O)c1cc(S(=O)(=O)N2CCCCC2)ccc1Cl)NCc1ccco1
Out: inactive

In: // same read-out, input: CC1CCCC(NC(=O)c2cc(S(=O)(=O)N3CCCCC3)ccc2Cl)C1C (centres undefined)
Out: inactive

In: // same read-out, input: CCCc1cc(=O)[nH]c(SCC(=O)c2cc(C)n(CCC)c2C)n1
Out: inactive

###

Target entity: Scavenger receptor class B member 1 (Mus musculus)
Test method notes: mouse SR-BI DiI-HDL uptake blockers – ldlA[mSR-BI] cells, fluorescence, single point, primary screen (AID 488896)
Experimental conditions: ldlA[mSR-BI] CHO cells, 3 h, at 12.5 µM
In all, about 320,000 compounds went through this assay and about 3,100 (0.97%) were called active.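 Rule for the calls: active = mean replicate inhibition of at least 70% and a set share of replicates each scoring 70 or more; inconclusive = meets just one of the two criteria; inactive = fails both criteria.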 This is one part of a sample in which actives are shown more often than they occur.
One label from this list, please: active, inactive

# Molecule, Classification
records = [
    ("COc1ccc(C(=O)Nc2nc(-c3ccc(OC)cc3)c(-c3ccc([N+](=O)[O-])cc3)s2)cc1", "inactive"),
    ("COc1cccc(/C=C2/SC(=S)N(CC(=O)NC3C=CS(=O)(=O)C3)C2=O)c1 (centres undefined)", "inactive"),
    ("COc1cc2c(cc1OC)C1C(=O)c3cc(OS(C)(=O)=O)c(OC)cc3C1N(C)C2=O (centres undefined)", "inactive"),
]

In: Entry Oc1c(Cl)cc(Cl)c(Cl)c1Cc1c(O)c(Cl)cc(Cl)c1Cl : call = ?
Out: active

In: // same read-out, input: CCCCN(C(=O)c1cccc(N2C(=O)c3ccccc3C2=O)c1)c1c(N)n(CCCC)c(=O)[nH]c1=O
Out: inactive

In: // same read-out, input: CN(C)C(=S)N=c1ssc(=S)n1Cc1ccco1
Out: inactive

In: // same read-out, input: O=c1c2ccccc2ncn1CCc1ccncc1
Out: inactive

In: // same read-out, input: COC[C@@H]1NS(=O)(=O)c2ccc(Br)cc2O[C@H]1c1ccccc1
Out: inactive
